target: GST-tagged recombinant human TYRO3 kinase domain (Homo sapiens (Human), UniProt Q06418); assay: TYRO3 Enzyme Assay (LanthaScreen Eu Kinase Binding, TR-FRET); conditions: averaged IC50
Sequence (Q06418 518-790): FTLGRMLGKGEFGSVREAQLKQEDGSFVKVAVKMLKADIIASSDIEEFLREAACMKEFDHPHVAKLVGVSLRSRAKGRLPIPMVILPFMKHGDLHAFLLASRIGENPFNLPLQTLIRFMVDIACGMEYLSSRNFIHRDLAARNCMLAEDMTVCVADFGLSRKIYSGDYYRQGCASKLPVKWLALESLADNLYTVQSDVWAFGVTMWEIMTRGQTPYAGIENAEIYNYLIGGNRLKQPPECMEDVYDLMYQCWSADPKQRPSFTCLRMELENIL
pIC50: −log10 of the molar value.
measured.property: pIC50

Use the examples below as a reference point.
| molecule | pIC50 |
| --- | --- |
| CCNc1cc2c(cn1)c(-c1cnn(C[C@@H](O)CO)c1)nn2[C@H]1CC[C@@H](Oc2cccc(Cl)c2Cl)CC1 | 7.00 to 8.00 |
| CNC(=O)c1ccc(O[C@H]2CC[C@@H](n3nc(-c4cnn(C)c4)c4cnc(NC)cc43)CC2)c(C(F)(F)F)c1 | 7.00 to 8.00 |
| CNc1cc2c(cn1)c(-c1cnn(C)c1)nn2[C@H]1CC[C@@H](Oc2nccc(C)n2)CC1 | 5.00 to 6.00 |
| CCNc1cc2c(cn1)c(-c1cnn(C)c1)nn2[C@H]1CC[C@@H](Oc2nccc(C#N)c2F)CC1 | 7.00 to 8.00 |
| CCNc1cc2c(cn1)c(-c1cnn(C)c1)nn2[C@H]1CC[C@@H](Oc2cccc(C#N)c2F)CC1 | > 8.00 |
| CCNc1cc2c(cn1)c(N1CCN(C)CC1)nn2[C@H]1CC[C@@H](Oc2nccc(C(F)(F)F)c2F)CC1 | > 8.00 |
| CCNc1cc2c(cn1)c(C1=CCN(C)CC1)nn2[C@H]1CC[C@@H](Oc2nccc(C(F)(F)F)c2F)CC1 | 7.00 to 8.00 |
| CNC(=O)c1ncccc1O[C@H]1CC[C@@H](n2nc(-c3cnn(C)c3)c3cnc(NC)cc32)CC1 | 5.00 to 6.00 |
| CNc1cc2c(cn1)c(-c1cnn(C)c1)nn2[C@H]1CC[C@@H](Oc2cncnc2)CC1 | 5.00 to 6.00 |
| CCNc1cc2c(cn1)c(-c1cnn(CC(CO)CO)c1)nn2[C@H]1CC[C@@H](Oc2cccnc2C(F)(F)F)CC1 | > 8.00 |

IN: What pIC50 value was documented for this molecule, CNc1cc2c(cn1)c(-c1ccn(C)c(=O)c1)nn2[C@H]1CC[C@@H](Oc2cccnc2C(F)(F)F)CC1 ?
OUT: > 8.00

IN: Now consider CCNc1cc2c(cn1)c(C1CCNC1)nn2[C@H]1CC[C@@H](Oc2nccc(C(F)(F)F)c2F)CC1 (some centres unmarked) .
OUT: 7.00 to 8.00

IN: Follow-up item: CNc1cc2c(cn1)c(-c1cnn(C)c1)nn2[C@H]1CC[C@@H](Oc2cn(C)nc2C(F)(F)F)CC1
OUT: > 8.00

IN: And then CCNc1cc2c(cn1)c(N1CC3COCC3C1)nn2[C@H]1CC[C@@H](Oc2nccc(C(F)(F)F)c2F)CC1 (some centres unmarked) , what is it?
OUT: 7.00 to 8.00

====

biological target: GST-tagged recombinant human TYRO3 kinase domain (Homo sapiens (Human), UniProt Q06418); experiment: TYRO3 Enzyme Assay (LanthaScreen Eu Kinase Binding, TR-FRET); details: averaged IC50
measured.property: IC50

The cases that follow already have their IC50 on record.
| molecular.string | IC50 |
| --- | --- |
| CCNc1cc2c(cn1)c(-c1cnn(C[C@H](O)C(C)(C)O)c1)nn2[C@H]1CC[C@@H](Oc2nccc(C(F)(F)F)c2F)CC1 | 10 to 100 nM |
| CNc1cc2c(cn1)c(-c1cnn(C[C@@H](O)CO)c1)nn2[C@H]1CC[C@@H](Oc2ccccc2C(F)(F)F)CC1 | 10 to 100 nM |
| CNc1cc2c(cn1)c(-c1cnn(C)c1)nn2[C@H]1CC[C@@H](Oc2cccc(C(=O)NC(C)C)c2)CC1 | 1000 to 10000 nM |
| CNc1cc2c(cn1)c(-c1cnn(C)c1)nn2[C@H]1CC[C@@H](Oc2ccc(=O)n(Cc3ccc(OC)cc3)n2)CC1 | 1000 to 10000 nM |
| CCNc1cc2c(cn1)c(N1CCNCC1)nn2[C@H]1CC[C@@H](Oc2nccc(C(F)(F)F)c2F)CC1 | < 10 nM |
| CNc1cc2c(cn1)c(-c1cnn([C@H]3CCNC[C@@H]3F)c1)nn2[C@H]1CC[C@@H](Oc2ccccc2F)CC1 | 10 to 100 nM |

Turning now to a further record.
IN: What value of IC50 has been reported for the following molecule? CNc1cc2c(cn1)c(-c1cnn(C)c1)nn2[C@H]1CC[C@@H](Oc2ccc(C(=O)NC(C)C)cc2)CC1
OUT: 1000 to 10000 nM

====

molecular target: GST-tagged recombinant human TYRO3 kinase domain (Homo sapiens (Human), UniProt Q06418); assay: TYRO3 Enzyme Assay (LanthaScreen Eu Kinase Binding, TR-FRET); details: averaged IC50
Structures can show the parent of a compound that is named as a salt.
measured.property: IC50

| molecule | IC50 |
| --- | --- |
| CCNc1cc2c(cn1)c(N1CC[C@@H](O)C1)nn2[C@H]1CC[C@@H](Oc2nccc(C(F)(F)F)c2F)CC1 | 10 to 100 nM |
| CNc1cc2c(cn1)c(-c1cnn(C)c1)nn2[C@H]1CC[C@@H](Oc2ccc(=O)[nH]c2C(F)(F)F)CC1 | < 10 nM |
| CNc1cc2c(cn1)c(-c1cnn(C)c1)nn2[C@H]1CC[C@@H](Oc2cccc3ncc(F)cc23)CC1 | < 10 nM |
| CCNc1cc2c(cn1)c(-c1cnn(C[C@@H](O)CO)c1)nn2[C@H]1CC[C@@H](Oc2cccc(Cl)c2)CC1 | 10 to 100 nM |
| CCNc1cc2c(cn1)c(-c1cnn(C)c1)nn2[C@H]1CC[C@@H](Oc2cccc(C#N)c2C)CC1 | < 10 nM |
| C#Cc1ncccc1OC1CCC(n2nc(-c3cnn(C)c3)c3cnc(NCC)cc32)CC1 (centres unmarked) | < 10 nM |
| CCNc1cc2c(cn1)c(-c1cnn(C)c1)nn2[C@H]1CC[C@@H](Oc2nccc(C(F)(F)F)c2F)CC1 | 10 to 100 nM |
| CCNc1cc2c(cn1)c(-c1cnn(C(C)(C)C#N)c1)nn2[C@H]1CC[C@@H](Oc2cn(C)nc2C(F)(F)F)CC1 | < 10 nM |
| CCNc1cc2c(cn1)c(-c1cnn(C[C@H](O)CO)c1)nn2[C@H]1CC[C@@H](Oc2ccc(F)cc2F)CC1 | 10 to 100 nM |
| CNc1cc2c(cn1)c(-c1cnn(C)c1)nn2[C@H]1CC[C@@H](Oc2nn(C)c(=O)c(C)c2C)CC1 [Example 8, hydrochloride] | 1000 to 10000 nM |

In the following, a different molecule is considered.
IN: So what does the record say about IC50 for CNc1cc2c(cn1)c(-c1cnn(C)c1)nn2[C@H]1CC[C@@H](Oc2ccc(C(=O)N(C)C)cc2)CC1 ?
OUT: 1000 to 10000 nM

====

// reported pIC50 for each item listed
biological target: GST-tagged recombinant human TYRO3 kinase domain (Homo sapiens (Human), UniProt Q06418); assay: TYRO3 Enzyme Assay (LanthaScreen Eu Kinase Binding, TR-FRET); conditions: averaged IC50
pIC50: −log10 of the molar value.

| compound | measured.property | observed.measurement |
| --- | --- | --- |
| CCNc1cc2c(cn1)c(-c1cnn(CC(C)(O)CO)c1)nn2[C@H]1CC[C@@H](Oc2nccc(C(F)(F)F)c2F)CC1 (stereo partly shown) | pIC50 | 7.00 to 8.00 |
| CCNc1cc2c(cn1)c(-c1cnn(C[C@@H](O)CO)c1)nn2[C@H]1CC[C@@H](Oc2cccc(F)c2F)CC1 | pIC50 | > 8.00 |
| CNc1cc2c(cn1)c(-c1cnn(C)c1)nn2[C@H]1CC[C@@H](Oc2nc(C)ncc2OC)CC1 | pIC50 | 5.00 to 6.00 |
| CNc1cc2c(cn1)c(-c1cnn(C)c1)nn2[C@H]1CC[C@@H](Oc2cccnc2C(C)C)CC1 | pIC50 | 7.00 to 8.00 |
| CNc1cc2c(cn1)c(-c1cnn(C)c1)nn2[C@H]1CC[C@@H](Oc2nn(C)c(=O)cc2C)CC1 | pIC50 | 5.00 to 6.00 |

IN: # pIC50 lookup, item CCNc1cc2c(cn1)c(-c1cnn(C)c1)nn2[C@H]1CC[C@@H](Oc2cn(C)nc2C(F)(F)F)CC1
OUT: > 8.00

IN: Next entry: CNc1cc2c(cn1)c(-c1cnn(C[C@@H](O)CO)c1)nn2[C@H]1CC[C@@H](Oc2cccnc2C(F)(F)F)CC1
OUT: > 8.00

====

// values below are reported pIC50
molecular target: GST-tagged recombinant human TYRO3 kinase domain (Homo sapiens (Human)); test: TYRO3 Enzyme Assay (LanthaScreen Eu Kinase Binding, TR-FRET); settings: averaged IC50
pIC50: −log10 of the molar value.

Recorded results for 5 molecules are shown here.
| molecular.string | pIC50 |
| --- | --- |
| CCNc1cc2c(cn1)c(C1CCN(C)CC1)nn2[C@H]1CC[C@@H](Oc2cn[nH]c2C(F)(F)F)CC1 | > 8.00 |
| CNc1cc2c(cn1)c(-c1cnn(C)c1)nn2[C@H]1CC[C@@H](Oc2ccc(OC)nn2)CC1 | 5.00 to 6.00 |
| CCNc1cc2c(cn1)c(-c1cnn(C[C@@H](O)CO)c1)nn2[C@H]1CC[C@@H](Oc2nccc(C#N)c2F)CC1 | > 8.00 |
| CNc1cc2c(cn1)c(-c1ccc(=O)n(C)c1)nn2[C@H]1CC[C@@H](Oc2cccnc2C(F)(F)F)CC1 | > 8.00 |
| CNc1cc2c(cn1)c(-c1cnn(C)c1)nn2[C@H]1CC[C@@H](Oc2cccc(C(=O)N(C)C)c2)CC1 | 5.00 to 6.00 |

IN: What value of pIC50 has been reported for the following molecule? CCNc1cc2c(cn1)c(-c1cnn(C[C@@H](O)C(C)(C)O)c1)nn2[C@H]1CC[C@@H](Oc2ccccc2F)CC1
OUT: 7.00 to 8.00

IN: Also, CCNc1cc2c(cn1)c(N1CCOCC1)nn2[C@H]1CC[C@@H](Oc2nccc(C(F)(F)F)c2F)CC1 please.
OUT: 7.00 to 8.00

IN: For CCNc1cc2c(cn1)c(-c1ccc(CN3CCN(C)CC3)cc1)nn2[C@H]1CC[C@@H](Oc2cn(C)nc2C(F)(F)F)CC1 then?
OUT: > 8.00
